// data source = paper PMC7127735

Entries and their measured Minimum cytotoxic concentration (HEL) follow.
# Test system: HEL cells
# Test Protocol: Minimum cytotoxic concentration, alteration of cell morphology in HEL cells
# Format: cell-based, human
# Test Settings: Table 2; microscopically detectable alteration of cell morphology
Value Type: Minimum cytotoxic concentration (HEL)

INSERT INTO results (compound, endpoint_value) VALUES
  ('COC(=O)[C@H](C)NP(=O)(OC[C@H]1O[C@@H](n2cc(I)c(=O)[nH]c2=O)C(F)(F)[C@@H]1O)Oc1ccccc1 (some centres unmarked)', '>50 µM'),
  ('C[C@H](NP(=O)(OC[C@H]1O[C@@H](n2cc(Br)c(=O)[nH]c2=O)C(F)(F)[C@@H]1O)Oc1ccccc1)C(=O)OCc1ccccc1 (some centres unmarked)', '>50 µM'),
  ('Nc1nc2c(ncn2COCCO)c(=O)[nH]1 [Acyclovir, reference compound]', '>400 µM'),
  ('C[C@H](NP(=O)(OC[C@H]1O[C@@H](n2cc(Cl)c(=O)[nH]c2=O)C(F)(F)[C@@H]1O)Oc1ccccc1)C(=O)OCc1ccccc1 (some centres unmarked)', '>50 µM');
